Field: Morningglory plant response rating. Provide a value for each of the compounds that follow.
system: morningglory; test: Test B pre-/postemergence herbicide test; format: in vivo, Ipomoea coccinea; conditions: postemergence, 125 g ai/ha; visual rating, scale 0 (no effect) to 100 (complete control)
Write the value as a bare number.

Record CC(=NO)c1cccc(NC(=O)c2cc(C(C)(C)C)nn2C)c1 , field Morningglory plant response rating: 0

Record C#CCNC(=O)c1ccc(F)c(NC(=O)c2cc(C(C)(C)C)nn2CC)n1 , field Morningglory plant response rating: 0

Record C=CCn1nc(C(C)(C)C)cc1C(=O)Nc1cccc(C(=O)NCC)c1 , field Morningglory plant response rating: 0

Record CCn1nc(C(C)(C)C)cc1C(=O)Nc1cncc(C(=O)N2CC=CC2)c1 , field Morningglory plant response rating: 0

Record CCn1nc(C(C)(C)C)cc1C(=O)Nc1cc(C(=O)NC(C)(C)C)ccn1 , field Morningglory plant response rating: 60

====

test system: soybean; assay: Test C pre-/postemergence herbicide test; type: in vivo, Glycine max; conditions: 500 g ai/ha; scale 0 to 100 (0 no effect, 100 complete control); visual, 12 to 14 days; preemergence
# cutoff 60 applies to Plant response rating, Soybean; >= gives MET, < gives NOT MET

Qu. Say whether C=CCNC(=O)c1cccc(NC(=O)c2cc(C(C)(C)C)nn2C)n1 shows Plant response rating, Soybean of 60 or more.
Ans. NOT MET

Qu. Say whether CCNC(=S)c1cccc(NC(=O)c2nn(C(C)(C)C)nc2C)c1 shows Plant response rating, Soybean of 60 or more.
Ans. MET

Qu. Say whether C=CCNC(=O)c1cccc(NC(=O)c2nn(C(C)C)nc2CC)c1 shows Plant response rating, Soybean of 60 or more.
Ans. MET

Qu. Say whether CCc1nn(C(C)C)nc1C(=O)Nc1cccc(C(=O)N(C)CC)c1 shows Plant response rating, Soybean of 60 or more.
Ans. MET

Qu. Say whether CCn1nc(C(C)(C)C)cc1C(=O)Nc1cc(C(=O)N(C)OC)ccc1F shows Plant response rating, Soybean of 60 or more.
Ans. NOT MET

====

Tested on: cocklebur
Assay: Test B pre-/postemergence herbicide test
Format: in vivo, Xanthium strumarium
Conditions: Preemergence, 500 g ai/ha; scale 0 to 100
Description: […] At the same time, plants selected from these crop and weed species and also blackgrass (Alopecurus myosuroides Huds.), wheat (Triticum aestivum L.) and wild oat (Avena fatua L.) were treated with postemergence applications of test chemicals formulated in the same manner. […] Treated plants and controls were maintained in a greenhouse for 13 to 15 days, after which time all species were compared to controls and visually evaluated. […]
Field: Cocklebur plant response rating. Provide a value for each of the compounds that follow.
Write the value as a bare number.

Record CCNC(=O)c1cccc(NC(=O)c2cc(C(C)(C)C)nn2CC(F)(F)F)c1 , field Cocklebur plant response rating: 40

Record CCn1nc(C(C)(C)C)cc1C(=O)Nc1cccc(C(=O)NCC2CC2)c1 , field Cocklebur plant response rating: 10

Record CCn1nc(C(C)(C)C)cc1C(=O)Nc1cc(C(=O)OC(C)(C)C)ccc1F , field Cocklebur plant response rating: 0

Record CCn1nc(C(C)(C)C)cc1C(=O)Nc1cccc(C(=O)NCCF)c1 , field Cocklebur plant response rating: 80

Record C=Cn1nc(C(C)(C)C)cc1C(=O)Nc1cccc(C(=O)N(CC)CC)c1 , field Cocklebur plant response rating: 10

The measurements presented in this section are drawn from patent US20060069132A1.
